Cited source for all entries: ChEMBL document CHEMBL4665668

List of pIC50 values.
- Study Target: Cholinesterase (Homo sapiens, UniProt P06276)
- Sequence (P06276 whole entry): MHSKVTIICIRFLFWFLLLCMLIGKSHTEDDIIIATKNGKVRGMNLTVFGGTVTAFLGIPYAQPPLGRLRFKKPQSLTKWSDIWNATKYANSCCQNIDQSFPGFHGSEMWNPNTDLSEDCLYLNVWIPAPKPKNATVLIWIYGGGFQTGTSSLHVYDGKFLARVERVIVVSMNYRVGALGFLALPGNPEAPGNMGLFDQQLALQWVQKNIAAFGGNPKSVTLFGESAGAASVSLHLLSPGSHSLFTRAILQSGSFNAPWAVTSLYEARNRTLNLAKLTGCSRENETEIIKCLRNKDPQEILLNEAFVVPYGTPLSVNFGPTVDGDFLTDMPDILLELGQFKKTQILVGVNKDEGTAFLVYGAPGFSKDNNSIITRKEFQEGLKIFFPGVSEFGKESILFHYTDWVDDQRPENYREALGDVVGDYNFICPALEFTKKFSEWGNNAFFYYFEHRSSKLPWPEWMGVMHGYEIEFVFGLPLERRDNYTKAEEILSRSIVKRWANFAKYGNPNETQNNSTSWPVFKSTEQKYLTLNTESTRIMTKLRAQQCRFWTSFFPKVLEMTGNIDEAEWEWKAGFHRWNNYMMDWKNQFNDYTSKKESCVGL
- Test Details: Inhibition of human serum BChE using butyrylthiocholine iodide as substrate preincubated for 10 mins followed by substrate addition by Ellman's method
// field semantics: pIC50 = negative decimal log of concentration (mol/L)

Please review the following examples before continuing.
INPUT: Could you tell me which pIC50 is on file for O=C(N/N=C/c1ccc(C(F)(F)F)cc1)N1CCN(c2ccccn2)CC1 ?
OUTPUT: 5.39

INPUT: Return reported pIC50; argument: c1ccc(-c2nnc(N3CCN(c4ccccn4)CC3)o2)cc1
OUTPUT: 5.49

Others:
INPUT: Endpoint output: pIC50 of Fc1ccc(-c2nnc(N3CCN(c4ccccn4)CC3)o2)c(F)c1 . Value?
OUTPUT: 6.10

INPUT: I am curious: what pIC50 value has been reported for COc1cc(/C=N/NC(=O)N2CCN(c3ccccn3)CC2)cc(OC)c1OC ?
OUTPUT: 5.33

INPUT: Give its pIC50 value. Item: FC(F)(F)c1ccc(-c2nnc(N3CCN(c4ccccn4)CC3)o2)cc1
OUTPUT: 5.67

INPUT: For the compound shown here, Brc1ccc(-c2nnc(N3CCN(c4ccccn4)CC3)o2)cc1 , give the reported pIC50.
OUTPUT: 6.07

INPUT: Would you mind telling me what pIC50 value was observed for O=C(N/N=C/c1ccc(O)cc1)N1CCN(c2ccccn2)CC1 ?
OUTPUT: 5.21

INPUT: Suppose we examine the compound O=C(N/N=C/c1ccc(OC(F)(F)F)cc1)N1CCN(c2ccccn2)CC1 ; what pIC50 value has been reported?
OUTPUT: 5.36

INPUT: Recorded pIC50 of FC(F)(F)Oc1ccc(-c2nnc(N3CCN(c4ccccn4)CC3)o2)cc1 , please.
OUTPUT: 5.71

INPUT: Entry under review: COc1cccc(-c2nnc(N3CCN(c4ccccn4)CC3)o2)c1OC . Reported pIC50?
OUTPUT: 5.28

INPUT: State the recorded pIC50 for this entry: O=C(N/N=C/c1ccc([N+](=O)[O-])cc1)N1CCN(c2ccccn2)CC1
OUTPUT: 5.40

INPUT: Given the entry O=C(N/N=C/c1ccc(O)cc1O)N1CCN(c2ccccn2)CC1 , report its measured pIC50.
OUTPUT: 5.32
